Read-out: Secreted IgG (sIgG), gene 3500
Assay: BSK_BT_sIgG: BioMAP Diversity Plus: BT Assay for Secreted IgG (sIgG) Biomarker Activity (AID 2284226)
Conditions: primary human B cells with PBMC
Activity calls are given as the source filed them. Rule for the calls: active = hit-call score of the fitted dose curve at least 0.9, where 1 is the maximum; inactive = score below 0.9.
Give your call using only these classes: active, inactive

# compound, label
records = [
    ("CCOC(=O)/C=C(C)/C=C/C[C@@H](C)CCCC(C)C", "active"),
]

Answer briefly: the call reported for `CC(C)c1ccc(CO)cc1` in this assay.
inactive

Status in this test for `CCNc1nc(NC(C)(C)C)nc(SC)n1` ?
active

Which outcome did this test record for the compound `O=C(OC1CCCCC1)c1ccccc1C(=O)OC1CCCCC1` ?
active

---

Read-out: Matrix Metallopeptidase 1 (MMP1), MMP1 (gene 4312)
Assay: BSK_BE3C_MMP1: BioMAP Diversity Plus: BE3C Assay for Matrix Metallopeptidase 1 (MMP1) Biomarker Activity (AID 2283024)
Details: primary human bronchial epithelial cells; actives raise or lower the signal
Calls of active or inactive are those of the source. How the source made its calls: active means hit-call score of the fitted dose curve at least 0.9, where 1 is the maximum; inactive means score below 0.9.
In this exercise, the only acceptable responses are TRUE for active, FALSE for inactive

# compound, label
measured = [
    ("COP(=S)(OC)Oc1cc(Cl)c(Cl)cc1Cl", "TRUE"),
    ("CCC(=O)C(CC(C)N(C)C)(c1ccccc1)c1ccccc1 (centres undefined)", "FALSE"),
    ("O=C(OC1CCCCC1)c1ccccc1C(=O)OC1CCCCC1", "TRUE"),
]

// outcome(item) with item = `Oc1cccc2cccnc12`
TRUE

Entry `Oc1ccc(-c2ccccc2)cc1` : call = ?
FALSE

---

Read-out: Thrombomodulin, THBD (gene 7056)
Test: BSK_CASM3C_Thrombomodulin: BioMAP Diversity Plus: CASM3C Assay for Thrombomodulin Biomarker Activity (AID 2283051);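 note: thrombomodulin protein level measured by ELISA 24 h after dosing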
Conditions: primary human coronary artery smooth muscle cells; actives raise or lower the signal
Calls of active or inactive are those of the source. Rule for the calls: active = hit-call score of the fitted dose curve at least 0.9, where 1 is the maximum; inactive = score below 0.9.
Please state which outcome applies, choosing from active, inactive

# compound, label
rows = [
    ("C=CC(=O)OCCCCCC(C)C", "inactive"),
]

# ---- query compound ----
Which result was noted for this compound in the test: `ClC1=C(Cl)[C@]2(Cl)[C@H]3[C@H]([C@H]4C=C[C@H]3C4)[C@@]1(Cl)C2(Cl)Cl`
inactive

---

Assay: ATG_TA_CIS: Attagene CIS-FACTORIAL HepG2 Assay for human TA Basal Promoter (AID 2282964)
Conditions: HepG2 Attagene CIS-factorial TA basal promoter reporter; actives raise or lower the signal
Active and inactive are the calls of the source. The calls were made as follows: active = hit-call score of the fitted dose curve at least 0.9, where 1 is the maximum; inactive = score below 0.9.
# output must be one of yes (1) (active), no (0) (inactive)

# compound, label
measured = [
    ("COc1cc(-c2ccc(N)c(OC)c2)ccc1N", "no (0)"),
    ("CC(C)(c1ccc(OCC2CO2)cc1)c1ccc(OCC2CO2)cc1 (stereo not drawn)", "yes (1)"),
    ("CC(=[OH+])/C=C(/C)[O-].CC(=[OH+])/C=C(/C)[O-].CC(=[OH+])/C=C(/C)[O-].[Fe]", "no (0)"),
    ("Cl/C=C/Cl", "no (0)"),
    ("CCCCCCCCC(=O)NCc1ccc(O)c(OC)c1", "no (0)"),
]

What did this assay record as the result for `ClCc1cccnc1` ?
no (0)

Record request — test call for `ClC(Cl)=C(Cl)C(Cl)=C(Cl)Cl`
no (0)

Lab log entry: `Cc1ccccc1N` — outcome as called in the assay?
no (0)

How was `COP(=O)(OC)O/C(=C\Cl)c1cc(Cl)c(Cl)cc1Cl` classified in this test?
yes (1)

# fetch the recorded call for `COS(=O)(=O)c1ccc(C)cc1` here
no (0)

Look up the recorded call for `CCOP(=S)(OCC)SCCS(=O)(=O)CC` in this test.
no (0)

So what was the verdict on `[O-][Cl+2]([O-])O` in this test?
no (0)

I would be grateful if you could indicate the recorded call for `COc1ccccc1OC` .
no (0)

---

Assay: ATG_TA_CIS: Attagene CIS-FACTORIAL HepG2 Assay for human TA Basal Promoter (AID 2282964)
Conditions: HepG2 Attagene CIS-factorial TA basal promoter reporter; actives raise or lower the signal
Description: ATG_CIS is a cell-based, multiplexed-readout assay that uses HepG2, a human liver cell line, with measurements taken at 24 hours after chemical dosing in a 24-well plate.ATG_TA_CIS is one of 52 assay component(s) measured or calculated from the ATG_CIS assay. […] This assay endpoint, ATG_TA_CIS, was analyzed with bidirectional fitting relative to DMSO as the negative control and baseline of activity. […]
Calls of active or inactive are those of the source. Rule for the calls: active = hit-call score of the fitted dose curve at least 0.9, where 1 is the maximum; inactive = score below 0.9.
Response enum: active, inactive

Write down the call the test reported for this molecule. Item: `Clc1nc(Cl)nc(Cl)n1`
inactive

I would be grateful if you could indicate the recorded call for `C[C@@H]1C[C@@H]([C@H](O)CC2CC(=O)NC(=O)C2)C(=O)[C@@H](C)C1` .
inactive

Outcome? `COP(=S)(OC)Oc1cc(Cl)c(Cl)cc1Cl`
inactive

Which outcome was entered for the molecule `Nc1ccc(Cl)cc1C(=O)c1ccccc1` in this test?
active

Recorded test call requested for `BrCCBr`
inactive

Check the results log: what was the call for `C=C(C)C#N` ?
inactive

What is the recorded call for this molecule in the test? `N#CCc1ccc(Cl)cc1`
inactive

What did the test return for `CCOP(=S)(OCC)SCSP(=S)(OCC)OCC` ?
inactive

---

Test: BSK_3C_Vis: BioMAP Diversity Plus: 3C Assay for Morphology Visualization (AID 2283025);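 note: fitted both ways so gain or loss versus DMSO counts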
Conditions: primary human endothelial cells (HUVEC)
Active and inactive are the calls of the source. The calls were made as follows: active = hit-call score of the fitted dose curve at least 0.9, where 1 is the maximum; inactive = score below 0.9.
Allowed answers: TRUE = active, FALSE = inactive

Reference set, count: 5
# molecule, label
rows = [
    ("CCNc1nc(NC(C)(C)C)nc(SC)n1", "FALSE"),
    ("O=C1C2(Cl)C3(Cl)C4(Cl)C(Cl)(Cl)C5(Cl)C3(Cl)C1(Cl)C5(Cl)C24Cl (configuration not stated)", "TRUE"),
    ("C=C(C)C(=O)[O][Sn]([CH2]CCC)([CH2]CCC)[CH2]CCC", "TRUE"),
    ("C[C@]12CCC(=O)C[C@@H]1CC[C@@H]1[C@@H]2CC[C@]2(C)[C@@H](O)CC[C@@H]12", "FALSE"),
    ("ClC(Cl)=C(Cl)C(Cl)=C(Cl)Cl", "TRUE"),
]

Each molecule tested received a call. Report the one for `CCN1CCC2(CC1)COc1cc3c(cc12)N(C(=O)c1ccc(-c2ccc(-c4nnc(C)o4)cc2C)cc1)CC3` .
TRUE

In this assay, the call recorded for `O=[N+]([O-])c1ccc(O)c([N+](=O)[O-])c1` was what?
FALSE

Hi, do you know how `O=C(Nc1ccc2[nH]ccc2c1)c1cc2cc(F)ccc2n1Cc1cccc(F)c1` came out in this test?
TRUE

Outcome logged for `OCc1ccco1` in this assay:
FALSE

How did this test come out for `CCOC(=O)/C=C(C)/C=C/C[C@@H](C)CCCC(C)C` ?
FALSE

What did the test return for `CC(C)(c1ccccc1)c1ccc(O)c(C(C)(C)c2ccccc2)c1` ?
TRUE

Dear colleague, could you share the recorded outcome for `Oc1c(I)cc(I)cc1I` when you have a moment?
TRUE

---

Read-out: Vascular cell adhesion molecule 1 (VCAM1), VCAM1 (gene 7412)
Experiment: BSK_LPS_VCAM1: BioMAP Diversity Plus: LPS Assay for Vascular cell adhesion molecule 1 (VCAM1) Biomarker Activity (AID 2283086)
Settings: primary human HUVEC with PBMC; actives raise or lower the signal
Active and inactive are the calls of the source. The calls were made as follows: active = hit-call score of the fitted dose curve at least 0.9, where 1 is the maximum; inactive = score below 0.9.
# output must be one of active, inactive

Please review the following examples before continuing.
# molecule, label
data = [
    ("CCOP(=S)(OCC)Oc1nc(Cl)c(Cl)cc1Cl", "active"),
    ("O=Cc1cccc(Oc2ccccc2)c1", "inactive"),
    ("O=C(Nc1ccc2[nH]ccc2c1)c1cc2cc(F)ccc2n1Cc1cccc(F)c1", "active"),
]

Continue with the molecule presented below.
Called result for `CC(C)(OO)c1ccccc1`
inactive

---

Target: Estrogen receptor (Homo sapiens) (UniProt P03372)
Sequence (P03372 whole entry, looked up): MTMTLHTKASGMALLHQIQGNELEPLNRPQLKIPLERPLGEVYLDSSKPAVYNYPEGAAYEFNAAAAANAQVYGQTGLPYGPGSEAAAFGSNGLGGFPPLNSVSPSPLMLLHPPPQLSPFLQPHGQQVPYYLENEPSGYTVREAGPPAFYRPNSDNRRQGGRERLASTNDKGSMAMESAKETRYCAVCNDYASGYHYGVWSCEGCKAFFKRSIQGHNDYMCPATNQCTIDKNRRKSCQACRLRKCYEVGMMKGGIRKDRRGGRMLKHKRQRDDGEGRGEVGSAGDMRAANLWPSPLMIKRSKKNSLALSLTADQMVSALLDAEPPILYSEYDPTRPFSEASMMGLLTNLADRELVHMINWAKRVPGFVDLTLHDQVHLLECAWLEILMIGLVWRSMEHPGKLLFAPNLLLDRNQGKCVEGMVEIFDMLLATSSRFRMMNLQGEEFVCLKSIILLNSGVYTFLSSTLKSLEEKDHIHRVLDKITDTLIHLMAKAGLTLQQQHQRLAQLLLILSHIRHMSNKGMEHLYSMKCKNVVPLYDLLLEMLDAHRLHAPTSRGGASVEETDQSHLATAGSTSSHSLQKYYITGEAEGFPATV
Assay: OT_ER_ERaERa_1440: Odyssey Thera (OT) 24-hour HEK293T Protein-Complementation Assay for Estrogen Receptor-alpha/-alpha Homodimer (AID 2283349);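 note: hits raise fluorescence above DMSO for agonists and antagonists alike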
Active and inactive are the calls of the source. Rule for the calls: active = hit-call score of the fitted dose curve at least 0.9, where 1 is the maximum; inconclusive = response in the unintended direction; inactive = score below 0.9.
Select the matching outcome among 1 = active, -1 = inactive

Here are 3 molecules together with their reported answers.
# molecule, label
records = [
    ("CCC[CH2][Sn]([CH2]CCC)([CH2]CCC)[O]C(=O)c1ccccc1", -1),
    ("CCC[CH2][Sn]([Cl])([Cl])[Cl]", -1),
    ("CCN1CCC2(CC1)COc1cc3c(cc12)N(C(=O)c1ccc(-c2ccc(-c4nnc(C)o4)cc2C)cc1)CC3", -1),
]

Look up the recorded call for `COc1ccc(C=O)cc1` in this test.
-1

Can you look up the reported call for `Cc1ccc(N)cc1Cl` for me?
-1

// return assay outcome for `CCCCOCCOC(C)=O`
-1

Would you mind telling me which call this test gave `CC(C)(C)c1cc(O)ccc1O` ?
-1
